Source of measurements: PubChem BioAssay AID1159580

The compounds listed here are annotated with their normalized growth.
Experimental details: chemical genetic growth profiling, strain panel (AID 1159580);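 note: tested at 20 µM; growth read once vehicle control cultures reached saturation at 30 °C; 1 = growth at the plate median or of vehicle wells; lower values mean less growth of the strain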
Condition: S. cerevisiae deletion strains, growth OD, locus YOR144C, strain elg1, active compounds read low
In all, about 5,500 compounds went through this assay and about 2,000 (36%) were called active. Another 18% or so got no clear call; they are omitted. The list shows a part of the results.

Some solved cases for reference:
Quick check: normalized growth of CC1(C)C2CC[C@]3(C)C(C(=O)C=C4[C@@H]5C[C@@](C)(C(=O)O)CC[C@]5(C)CC[C@]43C)[C@@]2(C)CC[C@@H]1O (stereo not given in full) ?
1.02 (inactive)

For the compound O[C@H]1C=C2CCN3Cc4cc5c(cc4C(C23)[C@@H]1O)OCO5 (stereo not given in full) , what normalized growth is on record?
0.47 (active)

Suppose we examine the compound NC[C@@H]1O[C@H](O[C@@H]2[C@@H](CO)OC(O[C@@H]3[C@@H](O)[C@H](N)C[C@H](N)[C@H]3OC3O[C@H](CN)[C@@H](O)[C@H](O)[C@H]3N)[C@@H]2O)[C@H](N)[C@@H](O)[C@@H]1O (stereo not given in full) ; what normalized growth value has been reported?
1.02 (inactive)

Value lookup for normalized growth; key = CN1CCc2cc3c(cc2C1O)OCO3 (stereo not given)
0.977 (inactive)

Moving on to the next compound.
Name the reported normalized growth value associated with the compound CN1Cc2c(ccc3c2OCO3)C2C(O)Cc3cc4c(cc3C21)OCO4 (stereo not given)
1.01 (inactive)
